# assayedSystem: T1, His/Avi-CynoIL18BP (recombinant cynomolgus IL-18BP with His and Avi tags) (cynomolgus monkey)
# T1 construct: also called cynomolgus IL-18BP-Avi-His
# T1 chain: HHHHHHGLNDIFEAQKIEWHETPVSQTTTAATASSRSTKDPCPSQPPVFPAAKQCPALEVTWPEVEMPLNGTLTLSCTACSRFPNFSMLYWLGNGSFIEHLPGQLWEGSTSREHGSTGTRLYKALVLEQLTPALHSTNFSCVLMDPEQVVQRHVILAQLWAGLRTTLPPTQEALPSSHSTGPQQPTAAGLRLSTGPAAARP
# assayMethodText: SPR Biacore T200, IgG captured on Protein A/G
measurementLabel: pKd
Units for pKd: none; it is -log10 of a concentration expressed in mol/L.

{"binder": "anti-IL-18BP antibody variant BP-04.32 (antibody, V domains shown) VH: QVQLVQSGAEVKKPGASVKVSCKASGYTFTDYDMHWVRQAPGQGLEWMGIYSTYYGDVSYAQKFQGRVTMTRDKSTSTVYMELSSLRSEDTAVYYCARSGTYYYGTRESHALDYWGQGTLVTVSS VL: DIQMTQSPSSVSASVGDRVTITCRASDNVYSNLAWYQQKPGKAPKLLIYGAISLADGVPSRFSGSGSGTDFTLTISSLQPEDFATYYCQHFWGNPYTFGQGTKLEIK", "measuredNumber": 7.23}
{"binder": "anti-IL-18BP antibody variant BP-04.15 (antibody, V domains shown) VH: QVQLVQSGAEVKKPGASVKVSCKASGYTFTDYDMHWVRQAPGQGLEWMGIISTYYGDVSYAQKFQGRVTMTRDKSTSTVYMELSSLRSEDTAVYYCARSGTYNYGTRESHPLDYWGQGTLVTVSS VL: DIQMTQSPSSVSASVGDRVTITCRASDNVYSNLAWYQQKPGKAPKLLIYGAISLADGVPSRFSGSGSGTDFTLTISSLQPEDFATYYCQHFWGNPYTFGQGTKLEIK", "measuredNumber": 7.70}

Okay, now this binder:
Provide only the value of recorded pKd for anti-IL-18BP antibody variant BP-04.09 (antibody, V domains shown) VH: QVQLVQSGAEVKKPGASVKVSCKASGYTFTDYDMHWVRQAPGQGLEWMGIYSTYYGVVSYAQKFQGRVTMTRDKSTSTVYMELSSLRSEDTAVYYCARSGTYYYGTRESHAFDYWGQGTLVTVSS VL: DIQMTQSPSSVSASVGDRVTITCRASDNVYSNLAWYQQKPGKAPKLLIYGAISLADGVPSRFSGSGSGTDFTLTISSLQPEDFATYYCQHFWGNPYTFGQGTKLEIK
8.89
